The reported measurements were obtained from patent US20030068675.

Molecular target: ZFP SBS#1054 (synthetic)
Sequence (chain, as listed by the source): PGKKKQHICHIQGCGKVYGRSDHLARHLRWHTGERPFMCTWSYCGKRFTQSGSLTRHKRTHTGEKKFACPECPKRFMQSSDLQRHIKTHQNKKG
Assay: EMSA
Settings: tags: MBP fusion
assayMetric: Kd (nM)
Report only the number, with the unit nM understood.

Q: Returns the measured Kd for the input binder. Input: GCTGCAGGG (dsDNA) DNA 1: GCTGCAGGG DNA 2: CCCTGCAGC
Ans: 0.033
